System: HeLa S3
TEST DESCRIPTION: Cytotoxicity activity against human HeLa S3 cells assessed as reduction in cell viability after 72 hrs by MTT assay
Type: functional, cell-based
CONDITION PARAMETERS: HeLa S3, 72 h
pIC50: −log10 of the molar value.
pIC50 listing for selected compounds.
PARAMETER: pIC50

COMPOUND | LIMIT OPERATOR | MEAS VALUE
COc1cccc2c1C(=O)c1c(O)c3c(c(O)c1C2=O)C[C@@](O)(C(=O)CO)C[C@@H]3O[C@H]1C[C@H](N)[C@H](O)[C@H](C)O1 [DOXORUBICIN] | = | 6.82
C=C(C)[C@H]1C[C@@H](C[C@]23C[C@@H](/C=C/C(C)C)C(C)(C)[C@@]4(C[C@@H](C(C)(C)O)OC4=C(C(=O)c4ccc(O)c(O)c4)C2=O)C3=O)C1(C)C | = | 5.22
C=C(C)[C@H]1C[C@@H](C[C@]23C[C@@H](/C=C/C(C)C)C(C)(C)[C@](C/C=C(\C)CO)(C(=O)C(C(=O)c4ccc(O)c(O)c4)=C2O)C3=O)C1(C)C | = | 5.10
CC(=O)[C@H]1C[C@@H](C[C@]23C[C@@H](/C=C/C(C)C)C(C)(C)[C@](CC=C(C)C)(C(=O)C(C(=O)c4ccc(O)c(O)c4)=C2O)C3=O)C1(C)C | < | 5.00
CC(C)=CC[C@@H]1C[C@]23C[C@@H](CC=C(C)C)C(C)(C)[C@](CC=C(C)C)(C(=O)C(C(=O)c4ccc(O)c(O)c4)=C2OC1(C)C)C3=O | < | 5.00
